Test system: 857933-349-R-J2-PDC complex spheroids, viability
Experiment: Anticancer human tumor 857933-349-R-J2-PDC patient-derived colon adenocarcinoma cell line growth inhibition [GQUAD]
Details: second compound 10 µM; first compound 0.0316 µM; active compounds read low
viability, T/C less than 70% is Fulfilled; viability, T/C greater than or equal to 70% is Not fulfilled.

COc1cc(C2c3cc4c(cc3C(OC3OC5COC(C)OC5C(O)C3O)C3COC(=O)C23)OCO4)cc(OC)c1O (stereo unspecified) + Cc1[nH]c2ccc(F)cc2c1-c1nc2c3cccnc3c3ncccc3c2[nH]1 :: Not fulfilled
CC(C)n1c(=O)n(C)c2cnc3cc(F)c(-c4ccc(OCCCN5CCCCC5)nc4)cc3c21 + Cc1cnc(CNC(=O)c2c(=O)c3ccc(N4CCCN(C)CC4)nc3n3c2sc2ccccc23)cn1 :: Fulfilled
CC(=O)O[C@H]1C(=O)[C@@]2(C)[C@H]([C@H](OC(=O)c3ccccc3)[C@]3(O)C[C@H](OC(=O)[C@H](O)[C@@H](NC(=O)c4ccccc4)c4ccccc4)C(C)=C1C3(C)C)[C@]1(OC(C)=O)CO[C@@H]1C[C@@H]2O + Cc1[nH]c2ccc(F)cc2c1-c1nc2c3cccnc3c3ncccc3c2[nH]1 :: Fulfilled
Cn1ncnc1[C@H]1c2n[nH]c(=O)c3cc(F)cc(c23)N[C@@H]1c1ccc(F)cc1 + CN(C)c1ccc(Nc2c3ccc(NC(=O)CCN4CCCC4)cc3nc3cc(NC(=O)CCN4CCCC4)ccc23)cc1 :: Not fulfilled
COc1cccc2c1C(=O)c1c(O)c3c(c(O)c1C2=O)CC(O)(C(=O)CO)CC3OC1CC(N)C(O)C(C)O1 (stereo unspecified) + Cc1cnc(CNC(=O)c2c(=O)c3ccc(N4CCCN(C)CC4)nc3n3c2sc2ccccc23)cn1 :: Fulfilled

----------
System: 857933-349-R-J2-PDC complex spheroids, viability
Assay: Anticancer human tumor 857933-349-R-J2-PDC cell line growth inhibition [GQUAD];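 also: spheroids exposed to compounds for one week before readout; percent viability relative to vehicle DMSO wells taken as 100%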
Conditions: second compound 1 µM; first compound 10 µM; active compounds read low
viability, T/C less than 90% is criterion met; viability, T/C greater than or equal to 90% is criterion not met.

O=C(c1cc(Cc2n[nH]c(=O)c3ccccc23)ccc1F)N1CCN(C(=O)C2CC2)CC1 + CN(C)c1ccc(Nc2c3ccc(NC(=O)CCN4CCCC4)cc3nc3cc(NC(=O)CCN4CCCC4)ccc23)cc1 :: criterion not met
O=C(c1cc(Cc2n[nH]c(=O)c3ccccc23)ccc1F)N1CCN(C(=O)C2CC2)CC1 + Cc1cnc(CNC(=O)c2c(=O)c3ccc(N4CCCN(C)CC4)nc3n3c2sc2ccccc23)cn1 :: criterion met
C=CCn1c(=O)c2cnc(Nc3ccc(N4CCN(C)CC4)cc3)nc2n1-c1cccc(C(C)(C)O)n1 + CN(C)c1ccc(Nc2c3ccc(NC(=O)CCN4CCCC4)cc3nc3cc(NC(=O)CCN4CCCC4)ccc23)cc1 :: criterion met
CC(=O)O[C@H]1C(=O)[C@@]2(C)[C@H]([C@H](OC(=O)c3ccccc3)[C@]3(O)C[C@H](OC(=O)[C@H](O)[C@@H](NC(=O)c4ccccc4)c4ccccc4)C(C)=C1C3(C)C)[C@]1(OC(C)=O)CO[C@@H]1C[C@@H]2O + CN(C)c1ccc(Nc2c3ccc(NC(=O)CCN4CCCC4)cc3nc3cc(NC(=O)CCN4CCCC4)ccc23)cc1 :: criterion met
CC1COCCN1c1cc(-c2ccnn2C)c2ccnc(-c3ccn[nH]3)c2n1 (configuration not stated) + CN(C)c1ccc(Nc2c3ccc(NC(=O)CCN4CCCC4)cc3nc3cc(NC(=O)CCN4CCCC4)ccc23)cc1 :: criterion met
CC1COCCN1c1cc(-c2ccnn2C)c2ccnc(-c3ccn[nH]3)c2n1 (configuration not stated) + Cc1cnc(CNC(=O)c2c(=O)c3ccc(N4CCCN(C)CC4)nc3n3c2sc2ccccc23)cn1 :: criterion met
O=C(c1cc(Cc2n[nH]c(=O)c3ccccc23)ccc1F)N1CCN(C(=O)C2CC2)CC1 + Cc1[nH]c2ccc(F)cc2c1-c1nc2c3cccnc3c3ncccc3c2[nH]1 :: criterion not met
CCCS(=O)(=O)Nc1ccc(F)c(C(=O)c2c[nH]c3ncc(-c4ccc(Cl)cc4)cc23)c1F + Cc1[nH]c2ccc(F)cc2c1-c1nc2c3cccnc3c3ncccc3c2[nH]1 :: criterion met
O=c1[nH]cc(F)c(=O)[nH]1 + Cc1[nH]c2ccc(F)cc2c1-c1nc2c3cccnc3c3ncccc3c2[nH]1 :: criterion met

----------
System: 857933-349-R-J2-PDC complex spheroids, viability
Test: Anticancer human tumor 857933-349-R-J2-PDC cell line growth inhibition [GQUAD];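 also: spheroids exposed to compounds for one week before readout; percent viability relative to vehicle DMSO wells taken as 100%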
Settings: second compound 1 µM; first compound 1 µM; active compounds read low
viability, T/C less than 90% is MET; viability, T/C greater than or equal to 90% is NOT MET.

C#Cc1c(F)ccc2cc(O)cc(-c3ncc4c(N5CC6CCC(C5)N6)nc(OCC56CCCN5CC(F)C6)nc4c3F)c12 (stereo not drawn) + Cc1[nH]c2ccc(F)cc2c1-c1nc2c3cccnc3c3ncccc3c2[nH]1 :: MET
CC1COCCN1c1cc(C2(O)CC3CCC(C2)O3)c2cnn(-c3ccn[nH]3)c2n1 (stereo not drawn) + Cc1[nH]c2ccc(F)cc2c1-c1nc2c3cccnc3c3ncccc3c2[nH]1 :: MET
COc1ncnc(C2CC2)c1-c1ncc2cnn(Cc3ccc(-c4nc(C(F)(F)F)cn4C(C)C)cc3)c2n1 + CN(C)c1ccc(Nc2c3ccc(NC(=O)CCN4CCCC4)cc3nc3cc(NC(=O)CCN4CCCC4)ccc23)cc1 :: NOT MET
C=CC(=O)N1CCN(c2nc(=O)n(-c3c(C)ccnc3C(C)C)c3nc(-c4c(O)cccc4F)c(F)cc23)C(C)C1 (stereo not drawn) + CN(C)c1ccc(Nc2c3ccc(NC(=O)CCN4CCCC4)cc3nc3cc(NC(=O)CCN4CCCC4)ccc23)cc1 :: NOT MET
O=c1[nH]cc(F)c(=O)[nH]1 + Cc1cnc(CNC(=O)c2c(=O)c3ccc(N4CCCN(C)CC4)nc3n3c2sc2ccccc23)cn1 :: MET
O=C(c1cc(Cc2n[nH]c(=O)c3ccccc23)ccc1F)N1CCN(C(=O)C2CC2)CC1 + CN(C)c1ccc(Nc2c3ccc(NC(=O)CCN4CCCC4)cc3nc3cc(NC(=O)CCN4CCCC4)ccc23)cc1 :: NOT MET
CCCS(=O)(=O)Nc1ccc(F)c(C(=O)c2c[nH]c3ncc(-c4ccc(Cl)cc4)cc23)c1F + CN(C)c1ccc(Nc2c3ccc(NC(=O)CCN4CCCC4)cc3nc3cc(NC(=O)CCN4CCCC4)ccc23)cc1 :: NOT MET
CC(=O)O[C@H]1C(=O)[C@@]2(C)[C@H]([C@H](OC(=O)c3ccccc3)[C@]3(O)C[C@H](OC(=O)[C@H](O)[C@@H](NC(=O)c4ccccc4)c4ccccc4)C(C)=C1C3(C)C)[C@]1(OC(C)=O)CO[C@@H]1C[C@@H]2O + Cc1cnc(CNC(=O)c2c(=O)c3ccc(N4CCCN(C)CC4)nc3n3c2sc2ccccc23)cn1 :: MET
Cc1cccc(N(C)C(=O)C2C(O)CCN2c2nc(C)cc(C(F)(F)F)c2C#N)c1 (stereo not drawn) + CN(C)c1ccc(Nc2c3ccc(NC(=O)CCN4CCCC4)cc3nc3cc(NC(=O)CCN4CCCC4)ccc23)cc1 :: NOT MET
O=C(c1cc(Cc2n[nH]c(=O)c3ccccc23)ccc1F)N1CCN(C(=O)C2CC2)CC1 + Cc1[nH]c2ccc(F)cc2c1-c1nc2c3cccnc3c3ncccc3c2[nH]1 :: NOT MET
CC(=O)O[C@H]1C(=O)[C@@]2(C)[C@H]([C@H](OC(=O)c3ccccc3)[C@]3(O)C[C@H](OC(=O)[C@H](O)[C@@H](NC(=O)c4ccccc4)c4ccccc4)C(C)=C1C3(C)C)[C@]1(OC(C)=O)CO[C@@H]1C[C@@H]2O + CN(C)c1ccc(Nc2c3ccc(NC(=O)CCN4CCCC4)cc3nc3cc(NC(=O)CCN4CCCC4)ccc23)cc1 :: MET
O=c1[nH]cc(F)c(=O)[nH]1 + CN(C)c1ccc(Nc2c3ccc(NC(=O)CCN4CCCC4)cc3nc3cc(NC(=O)CCN4CCCC4)ccc23)cc1 :: MET
CCCS(=O)(=O)Nc1ccc(F)c(C(=O)c2c[nH]c3ncc(-c4ccc(Cl)cc4)cc23)c1F + Cc1[nH]c2ccc(F)cc2c1-c1nc2c3cccnc3c3ncccc3c2[nH]1 :: MET

----------
Tested on: 857933-349-R-J2-PDC complex spheroids, viability
Test: Anticancer human tumor 857933-349-R-J2-PDC cell line growth inhibition [GQUAD];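 also: spheroids exposed to compounds for one week before readout; percent viability relative to vehicle DMSO wells taken as 100%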
Conditions: second compound 0.0316 µM; first compound 0.0316 µM; active compounds read low
In this section, each of the molecules is paired with its reported viability, T/C.
quantity-measured: viability, T/C (%)

Nc1ccn(C2OC(CO)C(O)C2(F)F)c(=O)n1 (centres undefined) + Cc1[nH]c2ccc(F)cc2c1-c1nc2c3cccnc3c3ncccc3c2[nH]1 :: 73.6
CC(=O)O[C@H]1C(=O)[C@@]2(C)[C@H]([C@H](OC(=O)c3ccccc3)[C@]3(O)C[C@H](OC(=O)[C@H](O)[C@@H](NC(=O)c4ccccc4)c4ccccc4)C(C)=C1C3(C)C)[C@]1(OC(C)=O)CO[C@@H]1C[C@@H]2O + Cc1[nH]c2ccc(F)cc2c1-c1nc2c3cccnc3c3ncccc3c2[nH]1 :: 43.9
O=C(NO)c1cnc(N2CCN(S(=O)(=O)c3ccc4ccccc4c3)CC2)nc1 + Cc1cnc(CNC(=O)c2c(=O)c3ccc(N4CCCN(C)CC4)nc3n3c2sc2ccccc23)cn1 :: 95.5
COc1ccc([C@@H](O)c2cc(-c3ncnc4cc(N5CCOCC5)ccc34)c(F)cc2Cl)nn1 + Cc1[nH]c2ccc(F)cc2c1-c1nc2c3cccnc3c3ncccc3c2[nH]1 :: 124
